# credit: patent EP4477653A1

- target_of_assay: human recombinant A3AR (expressed in HEK-293 cells) (Homo sapiens, UniProt P0DMS8)
- Construct: host or cells: HEK-293 cells
- Sequence (P0DMS8 whole entry): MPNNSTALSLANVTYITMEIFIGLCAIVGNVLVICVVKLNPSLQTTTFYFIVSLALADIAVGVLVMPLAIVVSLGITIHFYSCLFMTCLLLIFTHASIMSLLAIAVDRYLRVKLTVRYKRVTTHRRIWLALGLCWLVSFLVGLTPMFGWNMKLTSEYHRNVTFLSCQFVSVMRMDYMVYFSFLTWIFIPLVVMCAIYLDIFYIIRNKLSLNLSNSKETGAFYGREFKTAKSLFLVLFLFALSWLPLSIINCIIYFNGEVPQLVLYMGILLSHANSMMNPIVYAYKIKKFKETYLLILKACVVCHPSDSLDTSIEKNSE
- experiment_summary: Adenosine receptors antagonism assay (Eurofins), [125I]-AB-MECA radioligand competition
- Format: binding
- experimental_setup: [125I]-AB-MECA 0.15 nM, r.t., 120 min; IC50 from dose-response curves; read-out: Potency Class A3AR
Reported IC50 is given for each of the following compounds.

Example results:
compound: CC(C)c1nnc2c(NCc3ccccc3)cc(NCC3CCCO3)nn12 (racemic) [compound 142]
value_reported: 100 to 1000 nM
--
compound: CC[C@H](CO)Nc1cc(NCc2ccccc2)c2nnc(C(C)C)n2n1 [compound 1]
value_reported: 10 to 100 nM
--
compound: CCC(CC)Nc1cc(Nc2ccncc2)c2nnc(C3CC3)n2n1 [compound 174]
value_reported: < 1 nM
--
compound: CCC(CC)Nc1cc(Nc2cccc(OC)n2)c2nnc(C3CC3)n2n1 [compound 183]
value_reported: < 1 nM
--
compound: c1ccc(CNc2cc(NC3CC4(CCC4)C3)nn3c(C4CC4)nnc23)nc1 [compound 205]
value_reported: 1 to 10 nM

Please report the recorded IC50 for COCCCNc1cc(NCc2ccccc2)c2nnc(C(F)(F)F)n2n1 [compound 36] .
10 to 100 nM

IC50 for CC[C@H](CO)Nc1cc(NCc2ccccn2)c2nnc(C3CC3)n2n1 [compound 211] ?
10 to 100 nM

Item under review: CCC(CC)Nc1cc(NC(=O)c2ccccc2)c2nnc(C(C)C)n2n1 [compound 96] . Reported IC50?
10 to 100 nM

Look at this compound and give its reported IC50. CCC(CC)Nc1cc(Nc2cccnc2OC)c2nnc(C3CC3)n2n1 [compound 184]
10 to 100 nM

Item under review: CCC(CC)Nc1cc(NC(=O)Cc2ccccc2)c2nnc(C(C)C)n2n1 [compound 98] . Reported IC50?
< 1 nM

---

# Lookup of reported IC50 keyed by entry
- target_of_assay: human recombinant A3AR (expressed in HEK-293 cells) (Homo sapiens, UniProt P0DMS8)
- Construct: host or cells: HEK-293 cells
- experiment_summary: Adenosine receptors antagonism assay (Eurofins), [125I]-AB-MECA radioligand competition
- Assay type: binding
- experimental_setup: [125I]-AB-MECA 0.15 nM, r.t., 120 min; IC50 from dose-response curves; read-out: Potency Class A3AR

Consider the worked cases shown below.
smiles_code: CCC(CC)Nc1cc(NCc2ccccn2)c2nnc(C3CC3)n2n1
IC50: 1 to 10 nM

smiles_code: CC(C)c1nnc2c(NCc3ccccc3)cc(NC(CO)CO)nn12
IC50: 100 to 1000 nM

smiles_code: CSCCCNc1cc(NCc2ccccc2)c2nnc(C(C)C)n2n1
IC50: 10 to 100 nM

smiles_code: CCC(CC)Nc1cc(N2Cc3ccccc3C2)c2nnc(C(C)C)n2n1
IC50: 100 to 1000 nM

smiles_code: CCC(CC)Nc1cc(Nc2ccncn2)c2nnc(C(C)C)n2n1
IC50: < 1 nM

Param readout = IC50; param system = human recombinant A3AR (expressed in HEK-293 cells) (Homo sapiens, UniProt P0DMS8); param query = CC(C)c1nnc2c(NCc3ccccc3)cc(NC3Cc4ccccc4C3)nn12 ; response: value
10 to 100 nM

Notebook entry, human recombinant A3AR (expressed in HEK-293 cells) (Homo sapiens, UniProt P0DMS8) assay: IC50 of Cc1cc(C)cc(CNc2cc(NCc3ccccc3)c3nnc(C(C)C)n3n2)c1 = ?
100 to 1000 nM

Identify the measured IC50 of c1ccc(CNc2cc(N[C@@H]3CCCOC3)nn3c(C4CC4)nnc23)nc1 for human recombinant A3AR (expressed in HEK-293 cells) (Homo sapiens, UniProt P0DMS8).
100 to 1000 nM

Find the measured IC50: item COCCCNc1cc(NCc2ccccc2)c2nnc(C)n2n1 , target or system human recombinant A3AR (expressed in HEK-293 cells) (Homo sapiens, UniProt P0DMS8).
100 to 1000 nM

Lab note: need IC50 with human recombinant A3AR (expressed in HEK-293 cells) (Homo sapiens, UniProt P0DMS8) for entry CC1(CNc2cc(NCc3ccccn3)c3nnc(C4CC4)n3n2)CCC1 , please look it up.
1 to 10 nM

State its IC50 on human recombinant A3AR (expressed in HEK-293 cells) (Homo sapiens, UniProt P0DMS8): COCCCCCNc1cc(NCc2ccccc2)c2nnc(C(C)C)n2n1
100 to 1000 nM

// map CC[C@@H](CO)Nc1cc(NCc2ccc(-c3ccccc3)cc2)c2nnc(C(C)C)n2n1 to recorded IC50 (system: human recombinant A3AR (expressed in HEK-293 cells) (Homo sapiens, UniProt P0DMS8))
10 to 100 nM

State its IC50 on human recombinant A3AR (expressed in HEK-293 cells) (Homo sapiens, UniProt P0DMS8): CC(C)c1nnc2c(NCc3ccccc3)cc(NCc3ccccc3)nn12
1 to 10 nM

Find IC50 (human recombinant A3AR (expressed in HEK-293 cells) (Homo sapiens, UniProt P0DMS8)) for the entry CCC(CC)Nc1cc(Nc2cnccn2)c2nnc(C(C)C)n2n1
< 1 nM
